Record set of Ki for target or system human 5-HT6 receptor (Homo sapiens).
Where a name gives a salt, the structure may show the parent alone.
Metric: Ki

Compound	Metric	Test Result
CCCN1CC(c2ccc(NS(=O)(=O)c3cccc(Br)c3)cc2)C1	Ki	10 to 50 nM
CCCN1C[C@H](c2ccc(NS(=O)(=O)c3cccc(C(F)(F)F)c3)cc2)C[C@H]1C [Example 94, hydrochloride]	Ki	10 to 50 nM
Cc1c(S(=O)(=O)Nc2cccc(C3CNC3)c2)sc2ccc(Cl)cc12	Ki	1 to 10 nM
O=S(=O)(Nc1ccc([C@@H]2CCNC2)cc1)c1cccc(C(F)(F)F)c1	Ki	10 to 50 nM
CCCN1CC[C@@H](c2ccc(NS(=O)(=O)c3ccc(F)c(C(F)(F)F)c3)cc2)C1	Ki	10 to 50 nM
CCCN1CC[C@@H](c2ccc(NS(=O)(=O)c3cc(F)c(Br)cc3F)cc2)C1	Ki	10 to 50 nM
CCCN1CC(c2ccc(NS(=O)(=O)c3cccc(C)c3)cc2)C1	Ki	50 to 150 nM
COc1cccc(S(=O)(=O)Nc2cccc(C3CNC3)c2)c1	Ki	1 to 10 nM

* * *

- Test Target: human dopamine D3 receptors (Homo sapiens, UniProt P35462)
- Sequence (P35462 whole entry): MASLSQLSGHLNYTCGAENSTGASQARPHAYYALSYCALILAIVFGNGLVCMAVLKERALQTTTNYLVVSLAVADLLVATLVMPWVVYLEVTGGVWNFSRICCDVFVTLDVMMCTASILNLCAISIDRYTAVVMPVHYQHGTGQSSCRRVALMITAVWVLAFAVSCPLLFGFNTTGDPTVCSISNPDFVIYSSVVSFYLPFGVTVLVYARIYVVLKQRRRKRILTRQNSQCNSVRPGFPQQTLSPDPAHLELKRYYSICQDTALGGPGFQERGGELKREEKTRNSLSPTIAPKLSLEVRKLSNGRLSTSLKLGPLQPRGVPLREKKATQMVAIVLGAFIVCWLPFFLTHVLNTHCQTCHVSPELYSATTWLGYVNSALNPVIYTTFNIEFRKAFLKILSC
Reported Ki values for a set of compounds
Metric: Ki

Compound	Metric	Test Result
CCCN1CC[C@@H](c2ccc(NS(=O)(=O)c3ccc(C)s3)cc2)C1.Cl [Example 90, hydrochloride]	Ki	1 to 10 nM
CCCN1CC[C@@H](c2ccc(NS(=O)(=O)c3cc(F)c(Br)cc3F)cc2)C1	Ki	1 to 10 nM
CCCN1CC[C@@H](c2ccc(NS(=O)(=O)c3ccc(Br)s3)cc2)C1.Cl [Example 59, hydrochloride]	Ki	1 to 10 nM
CCCN1CC[C@@H](c2ccc(NS(=O)(=O)c3ccc(-c4csnn4)s3)cc2)C1.Cl [Example 75, hydrochloride]	Ki	10 to 50 nM
CCCN1CC[C@@H](c2ccc(NS(=O)(=O)c3ccc(-c4ccccn4)s3)cc2)C1.Cl [Example 66, hydrochloride]	Ki	< 1 nM
CCCN1CC[C@@H](c2ccc(NS(=O)(=O)c3ccc(C(F)(F)F)s3)cc2)C1.Cl [Example 76, hydrochloride]	Ki	1 to 10 nM
C=CCN1CC[C@@H](c2ccc(NS(=O)(=O)c3cccc(C(F)(F)F)c3)cc2)C1	Ki	10 to 50 nM
CCCN1CC[C@@H](c2ccc(NS(=O)(=O)c3cc(F)cc(C(F)(F)F)c3)cc2)C1.Cl [Example 103, hydrochloride]	Ki	50 to 150 nM
CCCN1CC[C@@H](c2ccc(NS(=O)(=O)c3ccc(-n4cccn4)s3)cc2)C1.Cl [Example 73, hydrochloride]	Ki	1 to 10 nM
CCCN1CC[C@@H](c2ccc(NS(=O)(=O)c3cccc(F)c3)cc2)C1.O=C(O)C(F)(F)F [Example 97, trifluoroacetate]	Ki	10 to 50 nM
CCCN1CC[C@@H](c2ccc(NS(=O)(=O)c3ccc(OC(F)(F)F)c(Br)c3)cc2)C1.Cl [Example 61, hydrochloride]	Ki	1 to 10 nM
CCCc1ccc(S(=O)(=O)Nc2ccc([C@@H]3CCN(CCC)C3)cc2)s1	Ki	< 1 nM
Cl.O=S(=O)(Nc1ccc([C@@H]2CCNC2)cc1)c1ccc(-c2ccccn2)s1 [Example 69, hydrochloride]	Ki	10 to 50 nM
CCCN1CC[C@@H](c2ccc(NS(=O)(=O)c3ccc(F)c(Br)c3F)cc2)C1.Cl [Example 86, hydrochloride]	Ki	1 to 10 nM
CCCN1CC[C@@H](c2ccc(NS(=O)(=O)c3ccc(Cl)s3)cc2)C1	Ki	1 to 10 nM
CCCN1CC[C@@H](c2ccc(NS(=O)(=O)c3cc(Cl)c(Cl)s3)cc2)C1.Cl [Example 74, hydrochloride]	Ki	10 to 50 nM
